Molecular target: human skin chymase (Homo sapiens, UniProt P23946)
Construct: human skin chymase (Cortex Biochem); purchased Cortex Biochem; host or cells: human skin (from the enzyme's name)
Assay: Enzyme-catalyzed hydrolysis assay, chymase (chromogenic substrate Suc-Ala-Ala-Pro-Phe-pNa)
Format: biochemical
Conditions: 10 nM enzyme, 0.7 mM substrate, pH 8.0, 37° C., 30 minutes
assayMetric: IC50 (µM)

Use the examples below as a reference point.
compound	IC50 / µM
O=C(c1cc2ccccc2cc1C(=O)N1CCC2(CC1)C(=O)NCN2c1ccccc1)C(c1cccc2ccccc12)P(=O)(O)O (stereo not shown)	0.0074
CN(C(=O)c1cc2ccccc2cc1C(=O)C(c1cccc2ccccc12)P(=O)(O)O)C1CCN(C(=O)/C=C/c2ccccc2)CC1 (stereo not shown)	0.0035

(a) CC(C)C(=O)N1CCC(N(C)C(=O)c2cc3ccccc3cc2C(=O)C(c2cccc3ccccc23)P(=O)(O)O)CC1 (stereo not shown)
(b) COc1ccc(C2CCN(C(=O)c3cc4ccccc4cc3C(=O)C(c3cccc4ccccc34)P(=O)(O)O)CC2)cc1 (stereo not shown)
(c) CN(C(=O)c1cc2ccccc2cc1C(=O)C(c1ccccc1)P(=O)(O)O)C1CCN(C(=O)c2ccc3ccccc3c2)CC1 (stereo not shown)
(d) Cc1ccc(/C=C/C(=O)N2CCC(N(C)C(=O)c3cc4ccccc4cc3C(=O)C(c3cccc4ccccc34)P(=O)(O)O)CC2)cc1 (stereo not shown)
(e) CN(C(=O)c1cc2ccccc2cc1C(=O)C(c1cccc2ccccc12)P(=O)(O)O)C1CCN(C(=O)CCc2ccc(C(F)(F)F)cc2)CC1 (stereo not shown)
**Q:** Could you please sort these 5 entries by IC50 from high to low? # answer = labels listed in requested order
**A:** c, d, b, a, e

###

Target: human skin chymase (Homo sapiens)
Construct: human skin chymase (Cortex Biochem); purchased Cortex Biochem; host or cells: human skin (from the enzyme's name)
Sequence (P23946 22-247): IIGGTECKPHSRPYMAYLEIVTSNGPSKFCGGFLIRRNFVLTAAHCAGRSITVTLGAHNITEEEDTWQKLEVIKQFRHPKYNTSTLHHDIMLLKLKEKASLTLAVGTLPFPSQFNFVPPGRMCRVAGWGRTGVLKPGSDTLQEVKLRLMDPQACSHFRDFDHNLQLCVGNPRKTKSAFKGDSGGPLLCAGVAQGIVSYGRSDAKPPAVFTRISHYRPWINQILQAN
Experiment: Enzyme-catalyzed hydrolysis assay, chymase (chromogenic substrate Suc-Ala-Ala-Pro-Phe-pNa)
Assay type: biochemical
Conditions: 10 nM enzyme, 0.7 mM substrate, pH 8.0, 37° C., 30 minutes
assayMetric: IC50 (µM)

Use the examples below as a reference point.
compound	unitTag	IC50
CC1CCC(N(C)C(=O)c2cc3ccccc3cc2C(=O)C(c2cccc3ccccc23)P(=O)(O)O)CC1 (stereo not drawn)	µM	0.0051
CN(C(=O)c1ccccc1C(=O)C(c1cccc2ccccc12)P(=O)(O)O)C1CCN(C(=O)c2ccc3ccccc3c2)CC1 (stereo not drawn)	µM	15
COP(=O)(O)C(C(=O)c1cc2ccccc2cc1C(=O)N(C)C1CCN(C(=O)c2ccc3ccccc3c2)CC1)c1cccc2ccccc12 (stereo not drawn)	µM	0.416
O=C(c1cc2ccccc2cc1C(=O)N1CCC(c2ccccc2)CC1)C(c1cccc2ccccc12)P(=O)(O)O (stereo not drawn)	µM	0.008

(I) O=C(NC1CCN(C(=O)c2cc3ccccc3cc2C(=O)C(c2cccc3ccccc23)P(=O)(O)O)CC1)c1ccc2ccccc2c1 (stereo not drawn)
(II) CN(C)c1ccc(C=CC(=O)N2CCC(N(C)C(=O)c3cc4ccccc4cc3C(=O)C(c3cccc4ccccc34)P(=O)(O)O)CC2)cc1 (stereo not drawn)
**Q:** Hey, which is lower on measured IC50, I or II ? // return label of chosen record
**A:** II
(II: 0.004 µM, I: 0.007 µM)

Hello, the source for this data is patent US8703957B2, in case you need it.
